target_desc: T1, human nectin-4 on cells (human, UniProt Q96NY8 32-510)
T1 construct: also called Nectin-4 receptor
T1 sequence: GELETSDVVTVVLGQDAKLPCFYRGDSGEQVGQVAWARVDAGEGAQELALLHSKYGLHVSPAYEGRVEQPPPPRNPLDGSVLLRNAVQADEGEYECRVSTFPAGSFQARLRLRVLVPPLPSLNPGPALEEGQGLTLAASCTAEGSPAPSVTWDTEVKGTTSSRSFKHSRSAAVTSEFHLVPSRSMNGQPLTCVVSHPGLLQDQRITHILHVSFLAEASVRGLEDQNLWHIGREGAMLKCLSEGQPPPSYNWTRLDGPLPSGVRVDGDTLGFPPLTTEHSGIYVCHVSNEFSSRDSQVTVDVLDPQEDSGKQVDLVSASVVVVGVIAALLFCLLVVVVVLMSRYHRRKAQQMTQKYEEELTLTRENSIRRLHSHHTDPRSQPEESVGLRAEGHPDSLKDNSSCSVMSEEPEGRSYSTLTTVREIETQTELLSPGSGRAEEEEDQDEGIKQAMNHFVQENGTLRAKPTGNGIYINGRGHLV
protocol_notes: flow cytometry, SUM190PT cells (high endogenous nectin-4)
recorded_endpoint: pEC50
One number for each entry, as −log10 of the molar value.

Returns the measured pEC50 for the input binder. Input: Ab8 (antibody, human IgG1, lambda, L234A L235A, V domains shown, Unconjugated antibody; also called Antibody 8; nectin-4 antibody Ab8) VH: QVQLVQSGAEVKKPGASVKVSCKASGYTFTSYYIHWVRQAPGQGLEWMGIINPISGRTSSAQKFQGRVTMTRDTSTSTVYMELSSLRSEDTAVYYCAKEGVGGELLRAFDIWGQGTLVTVSS VL: QSVLTQPPSVSEAPRQRVTISCSGSSSNIGNNAVNWYQQLPGKAPKLLIYYDDLLPSGVSDRFSGSKSGTSASLAISGLQSEDEADYYCAAWDDSLNGFVFGGGTKLTVLG
9.96

// for each binder below, give its pEC50
1. Ab1a (antibody, human IgG1, kappa, L234A L235A, V domains shown, Unconjugated antibody; also called nectin-4 antibody Ab1a) VH: QVQLVQSGAQVKKPGASVKVSCKASGYTFTGYYIHWVRQAPGQGLEWMGWINPNSGGTNYAQKFQGRVTMTRDTSISTAYMELSRLRSDDTAVYFCAREDWDFDYWGQGTLVTVSS VL: EIVLTQSPGTLSLSPGERATLSCRTSQSVSSSYLAWYQQKPGQAPRLLIYGASNRATDIPDRFSGSGSGTDFTLTINRLEPEDFAVYYCQQYGSSPITFGQGTRLEIKR
2. Ab7 (antibody, human IgG1, lambda, L234A L235A, V domains shown, Unconjugated antibody; also called Antibody 7; nectin-4 antibody Ab7) VH: QVQLVQSGAEVKKPGASVKVSCKASGYTFTNYYMHWVRQAPGQGLEWMGIINPSSGSASYAQKFQGRVTMTRDTSTSTVYMELSSLRSEDTAVYYCAREGVGRDILQAFDIWGQGTLVTVSS VL: QSVLTQPPSVSEAPRQRVTISCSGSSSNIGNNAVNWYQQLPGKAPKLLIYYDDLLPSGVSDRFSGSKSGTSASLAISGLQSEDEADYYCAAWDDSLNGHVFGGGTKLTVLG
3. Ab5 (antibody, human IgG1, kappa, L234A L235A, V domains shown, Unconjugated antibody; also called Antibody 5; nectin-4 antibody Ab5) VH: QVQLVQSGAEVKKPGASVKVSCKASGYTFTSYYVHWVRQAPGQGLEWMGIINPSIISTSYAQKFQARVTMTRDTSTSTVYMELSSLRSEDTAVYYCARGLNFDAFDIWGQGTLVTVSS VL: DIQLTQSPSFLSASVGDRVTITCRASQGISSYLAWYQQKPGKAPKLLIYAASTLQSGVPSRFSGSGSGTEFTLTISSLQPEDFATYYCQQLNNYPFTFGQGTKVEIKR
4. Ab4 (antibody, human IgG1, kappa, L234A L235A, V domains shown, Unconjugated antibody; also called Antibody 4) VH: QVQLQESGPGLVKPSETLSLTCTVSGGSISGYYWSWIRQPPGKGLEWIGYIYYSGSTNYNPSLKSRVTISVDTSKNQFSLKLSSVTAADTAVYYCARLGIFFDAFDIWGQGTLVTVSS VL: DIQLTQSPSFLSASVGDRVTITCRASQGISSYLAWYQQKPGKAPKLLIYAASTLQSGVPSRFSGSGSGTEFTLTISSLQPEDFATYYCQQFNSYPWTFGQGTKVEIKR
5. enfortumab (antibody, V domains shown) VH: EVQLVESGGGLVQPGGSLRLSCAASGFTFSSYNMNWVRQAPGKGLEWVSYISSSSSTIYYADSVKGRFTISRDNAKNSLSLQMNSLRDEDTAVYYCARAYYYGMDVWGQGTTVTVSS VL: DIQMTQSPSSVSASVGDRVTITCRASQGISGWLAWYQQKPGKAPKFLIYAASTLQSGVPSRFSGSGSGTDFTLTISSLQPEDFATYYCQQANSFPPTFGGGTKVEIKR
6. Ab3 (antibody, human IgG1, kappa, L234A L235A, V domains shown, Unconjugated antibody; also called Antibody 3; nectin-4 antibody Ab3) VH: EVQLVESGGGLVKPGGSLRLSCAASGFNLNHYNMNWVRQAPGKGLEWVSSVSSGGGFRYYADSVRGRFTISRDNAKNSLYLQMNSLRAEDTAVYYCARGAVFHDAFDIWGQGTLVTVSS VL: DIQLTQSPSFLSASVGDRVTITCRASQDISSYLAWYQQKPGKAPKLLIYVASTLQSGVPSRFSGSGSGTEFTLTISSLQPEDFATYYCQQINSYPFTFGQGTKVEIKR

9.92
9.85
9.51
9.72
9.96
9.64

Returns the measured pEC50 for the input binder. Input: Ab6 (antibody, human IgG1, lambda, L234A L235A, V domains shown, Unconjugated antibody; also called Antibody 6; nectin-4 antibody Ab6) VH: QVQLVQSGAEVKKPGASVKVSCKASGYTFTGYYMHWVRQAPGQGLEWMGIINPSGGSTTYAQKFQGRVTMTRDTSTSTVYMELSSLRSEDTAVYYCARGRLGTYFDYWGQGTLVTVSS VL: SYVLTQPPSVSVAPGQTARITCGGNNIGSKSVHWYQQKPGQAPVLVVYDDSDRPSGIPERFSGSNSGNTATLTISRVEAGDEADYYCQVWDRSSDQVVFGGGTKLTVLG
9.77
